Source of measurements: paper PMC2756588

molecular target: Bem1-1, P29366; assay: SPOT array; details: median of control spots 4282
Sequence (P29366 55-141): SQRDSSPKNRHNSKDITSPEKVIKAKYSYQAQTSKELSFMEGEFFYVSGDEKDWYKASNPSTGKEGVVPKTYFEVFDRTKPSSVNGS
Quantity name: SPOT intensity
Answer with a number only.

The cases that follow already have their SPOT intensity on record.
AVPPPPPPPPLPESL	0
PSTMDFPKLPSFQNS	0
AATTSTPPLPRRRAT	0
LRWRHKFFLPAIAAI	0

Prompt line: Report SPOT intensity for KFIPSRPAPKPPSSA please.
Response line: 0

Prompt line: Queued: VDFTLPPPPPPPGLD
Response line: 0

Prompt line: Queued: EREKALPPIPFTTTL
Response line: 1

Prompt line: Queued: FVLRYYILIPHEQWD
Response line: 2

Prompt line: Queued: NENKKLPPAPTVFGL
Response line: 2

Prompt line: Queued: AKDLIVPRRPEWNEG
Response line: 3920

Prompt line: Queued: PALPSLPPPPLLNVD
Response line: 0
